# Assay: Paste air entrainment, Maximum air protocol
# Details: 50:50 fly ash C1 (LOI 1.62%):PCA paste; Air 30 (0.0125 wt %)/ND/X=1/4/4, X = the labelled SA
Provide the recorded Air entrained at 66 min for the entries that follow.
Write the number in vol % without appending the unit.

Input: If you can, please state the reported Air entrained at 66 min value of `CCCCOCCOCCO` .
Output: 21

Input: Suppose we examine the compound `COCCO` ; what Air entrained at 66 min value has been reported?
Output: 20

Input: Looking for the measured Air entrained at 66 min of `OCCOc1ccccc1` , can you help?
Output: 19

Input: Give its Air entrained at 66 min value. Item: CC(O)C(O)c1ccccc1 (stereo not drawn)
Output: 18

Input: Air entrained at 66 min lookup needed for `OCC(O)CO` , thanks.
Output: 18

Input: Fill in the blank: the reported Air entrained at 66 min of COC(C)COC(C)CO (stereo not drawn) is ____.
Output: 21
